The reported numbers originate from PubChem BioAssay (NCI).

System: NCI-H226 lung
ASSAY_OVERVIEW: NCI-60 one-dose screen, 48 h (100 = growth as untreated, 0 = no growth, -100 = all killed)
CONDITIONS_USED: 10 µM unless noted
About 83,000 compounds went through this panel and 20% of them were active in at least one assay; those are over-represented in the sample as a whole.
// boundary case: growth equal to 50% maps to NOT MET; strictly smaller maps to MET

Solved cases (3 shown):
Clc1ccc2c(OCCCN3CCOCC3)c3oc4ccccc4c3nc2c1    MET
COc1ccc(C(=O)c2cc(C(=O)/C=C/c3c(Cl)cccc3Cl)c3cc(C)ccn23)cc1    NOT MET
C#Cc1nc(C2=C(C)C(=N\O)/C(=N/O)C2)cs1    NOT MET

Input line: Does this compound meet the criterion growth < 50%? `CC(=O)Oc1ccccc1C(=O)Nc1ccc(C(=O)/C=C/c2cccs2)cc1`
Output line: NOT MET

Input line: Now the same for CCN1C(=S)N(CC)C2C1NN=C1SC(c3ccccc3)=CC(=O)N12 (stereo not given)
Output line: NOT MET

Input line: Further, for `C#C[C@]1(O)CC[C@H]2[C@@H]3CC=C4c5sc(-c6ccc(F)cn6)nc5CC[C@]4(C)[C@H]3CC[C@@]21C` ?
Output line: NOT MET

Input line: Next record, please: `N[C@@H](Cc1cn(-c2c3ccccc3nc3ccccc23)nn1)C(=O)O`
Output line: NOT MET

Input line: Note, next up: O=C(c1ccc(O)cc1)C1[C@H](c2ccc(Cl)cc2)[C@@H](c2ccccc2)NC12C(=O)Nc1ccc(Cl)cc12 (stereo not given in full)
Output line: MET

Input line: Item: COC(=O)C(Cc1ccccc1)NS(=O)(=O)/N=C1\NC(=O)NC1=C(Cl)Cl (stereo not given)
Output line: NOT MET

Input line: How about this compound: `CC(C)(O)c1cncc(-c2ccc3ncnc(N4CCc5cc(F)c(Cl)cc54)c3c2)c1`
Output line: MET

Input line: Same lookup for N#Cc1nc(-c2ccccc2)oc1N1CCC(CO)C1 (stereo not given) , please.
Output line: NOT MET

Input line: Next entry: `N/C(=N\c1nc2c(Cl)cc(Cl)cc2s1)C(Cl)(Cl)Cl`
Output line: NOT MET

Input line: // repeat for `Cc1ccc(CNS(=O)(=O)/N=C2\NC(=O)NC2=C(Cl)Cl)cc1` and report
Output line: NOT MET

Input line: Let us now turn to `COc1cc(/C=C/C(=O)c2ccc(F)cc2)ccc1Oc1nc(NCCO)nc(N2CCOCC2)n1`
Output line: NOT MET

Input line: Let us now turn to COc1cc2nc(-c3ccc(Cl)cc3)cc(OCCCNCC3CCCO3)c2cc1OC (stereo not given)
Output line: NOT MET

Input line: Now consider `O=C(Oc1ccc2ccc(=O)oc2c1)c1ccc(Cl)cc1` .
Output line: NOT MET

Input line: Consider next the compound `C/C(=N\NC(N)=O)c1c(O)sc(=O)[nH]c1=O` in the same way.
Output line: NOT MET

Input line: Same again, this time with `N#Cc1nc(-c2ccccc2)oc1S(N)(=O)=O`
Output line: NOT MET

Input line: Similarly, `COc1ccc(C(=O)/C=C/c2ccc(Oc3nc(NCCO)nc(N4CCOCC4)n3)c(OC)c2)cc1` ?
Output line: NOT MET

Input line: Entry to check: Cc1cc(C(NC(=O)CCCCCNc2cccc3c2C(=O)N(C2CCC(=O)NC2=O)C3=O)c2cccnc2)c(O)c2ncccc12 (stereo not given)
Output line: MET

Input line: Same read-out for `CCOC(=O)c1sc(N)c(C(=O)OCC)c1C` ?
Output line: NOT MET

Input line: Another compound: `COC(=O)C1CN(S(=O)(=O)/N=C2\NC(=O)NC2=C(Cl)Cl)C1`
Output line: NOT MET

###

Test system: SNB-19 CNS
ASSAY_OVERVIEW: NCI-60 one-dose screen, 48 h (100 = growth as untreated, 0 = no growth, -100 = all killed)
CONDITIONS_USED: 10 µM unless noted
About 83,000 compounds went through this panel and 20% of them were active in at least one assay; those are over-represented in the sample as a whole. Activity calls are given as the source filed them. Rule for the calls: active = growth percent below 10; inactive = the rest.
Measured growth of individual entries

Previously resolved entries follow.
COc1ccc(-c2nc3ccc(-c4nnc(SCC(=O)Nc5ccc(C(C)=O)cc5)o4)cc3[nH]2)cc1    119% (inactive)
COc1cc(/C=C/C(=O)c2ccc(C(F)(F)F)cc2)ccc1Oc1nc(NCCO)nc(N2CCOCC2)n1    87.6% (inactive)
N/C(=N\c1nc2c(Br)cccc2s1)C(Br)Br    27.7% (inactive)
CN(C)c1ccc(/C=c2\sc3nc4ccccc4n3c2=O)cc1    99.3% (inactive)

Here is another compound to look at.
Input line: Return growth measured with SNB-19 CNS given this compound: `COc1cc(N=Cc2sc(Nc3nccs3)nc2O)cc(OC)c1OC`
Output line: 78.2% (inactive)

###

Tested on: PC-3 prostate
ASSAY_OVERVIEW: NCI-60 one-dose screen, 48 h
CONDITIONS_USED: 10 µM unless noted
Compounds without any hit were thinned out: in the full panel of roughly 83,000, 20% have a hit. The source made the active and inactive calls. The calls were made as follows: active = growth percent below 10; inactive = the rest.
Just give me one of these, please: true (1) for active, false (0) for inactive

Input line: Each molecule tested received a call. Report the one for `OC1CCN(CCCOc2c3ccc(Cl)cc3nc3c2oc2ccc(Cl)cc23)CC1` .
Output line: false (0)

Input line: Now the molecule `C#Cc1nc(C2=C(C)C(=O)/C(=N/OC(C)=O)C2)cs1`
Output line: false (0)

Input line: `Clc1ccc2oc3c(OCCCn4ccnc4)c4ccccc4nc3c2c1` , same question.
Output line: false (0)

Input line: Record: `Cc1nc2cnc(N)c(C#Cc3cncc(C(=O)Nc4ccc(Cl)c(C(F)(F)F)c4)c3)c2nc1C`
Output line: false (0)

Input line: Try this molecule next: `Fc1ccc(-c2cc3nc(C(Cl)Cl)nc(-c4ccccc4)n3n2)cc1`
Output line: true (1)

Input line: Next: `CC(C)(C)Nc1nc2c(OCCc3ccccc3)cccn2c1-c1ccc(Cl)cc1`
Output line: true (1)

Input line: Same question for `CS(=O)(=O)c1ccc(-c2nc3ccccn3c2/C=N/Nc2nc(-c3ccc(Br)cc3)cs2)cc1` please.
Output line: false (0)

Input line: Another molecule to look at: `Clc1ccc2c(OCCCN3CCOCC3)c3oc4ccccc4c3nc2c1`
Output line: false (0)

Input line: Proceed to `O=C1[C@H]2Cc3c([nH]c4ccccc34)[C@@H](c3ccc(Br)cc3)N2C(=O)CN1C1CCN(Cc2ccccc2)CC1`
Output line: false (0)

Input line: Now try `CC(C)(C)Nc1nc2c(OCCc3ccccc3)cccn2c1-c1cccc(F)c1` .
Output line: true (1)

###

Test system: EKVX NSCLC
ASSAY_OVERVIEW: NCI-60 one-dose screen, 48 h (100 = growth as untreated, 0 = no growth, -100 = all killed)
CONDITIONS_USED: 10 µM unless noted
The panel holds about 83,000 compounds, 20% with a hit somewhere; the sample as a whole holds those more often.
Classify by measured growth: T if it is equal to or exceeds 80%, F if it is smaller.

See these solved cases before continuing.
O=C(c1ccc(O)cc1)C1[C@H](c2ccc(Cl)cc2)[C@@H](c2ccccc2)NC12C(=O)Nc1ccc(Cl)cc12 (stereo not given in full)    F
Cn1cc(-c2cc(N)n3nc(-c4cn(C)c5ccc(Br)cc45)cc3n2)c2cc(Br)ccc21    T
Cc1ccc2ccc3ccc(C)nc3c2n1.Cc1ccc2ccc3ccc(C)nc3c2n1.Oc1c(Cl)cc(Cl)c2ccc(CN3CCCCC3)nc12.[Ru]    F
CC1=C(C)C(=O)C(Nc2cccc(C(F)(F)F)c2)=C(Cl)C1=O    F
O=C(NNc1nc2cc(F)ccc2n2c(CN3CC4(COC4)C3)ccc12)c1cnccn1    F
C/C(=N/NC(N)=S)c1ccc(Nc2nc(SCC(C)C)nc(-c3ccc(F)cc3)c2C#N)cc1    F
COc1cc(/C=C/C(=O)c2ccc(F)cc2)ccc1Oc1nc(NCCO)nc(N2CCOCC2)n1    T
O=C(N/N=C/c1ccc([N+](=O)[O-])o1)c1[nH]c2ccc(Br)cc2c1-c1ccccc1    F

Input line: # bool: growth of `COC(=O)C1CN(S(=O)(=O)/N=C2\NC(=O)NC2=C(Cl)Cl)C1` >= 80%
Output line: T

Input line: Also check `CN(C)CCCOc1c2ccc(Cl)cc2nc2c1oc1ccc(Cl)cc12`
Output line: F

Input line: Another compound to look at: `C#Cc1nc(C2=C(C)/C(=N/OCc3ccccc3)CC2)cs1`
Output line: F

Input line: What do you have for `CN(C)CCCNc1c2ccccc2nc2c1oc1ccc(Cl)cc12` ?
Output line: F
